target_under_test: 5-LOX (Homo sapiens)
Sequence (P09917 whole entry): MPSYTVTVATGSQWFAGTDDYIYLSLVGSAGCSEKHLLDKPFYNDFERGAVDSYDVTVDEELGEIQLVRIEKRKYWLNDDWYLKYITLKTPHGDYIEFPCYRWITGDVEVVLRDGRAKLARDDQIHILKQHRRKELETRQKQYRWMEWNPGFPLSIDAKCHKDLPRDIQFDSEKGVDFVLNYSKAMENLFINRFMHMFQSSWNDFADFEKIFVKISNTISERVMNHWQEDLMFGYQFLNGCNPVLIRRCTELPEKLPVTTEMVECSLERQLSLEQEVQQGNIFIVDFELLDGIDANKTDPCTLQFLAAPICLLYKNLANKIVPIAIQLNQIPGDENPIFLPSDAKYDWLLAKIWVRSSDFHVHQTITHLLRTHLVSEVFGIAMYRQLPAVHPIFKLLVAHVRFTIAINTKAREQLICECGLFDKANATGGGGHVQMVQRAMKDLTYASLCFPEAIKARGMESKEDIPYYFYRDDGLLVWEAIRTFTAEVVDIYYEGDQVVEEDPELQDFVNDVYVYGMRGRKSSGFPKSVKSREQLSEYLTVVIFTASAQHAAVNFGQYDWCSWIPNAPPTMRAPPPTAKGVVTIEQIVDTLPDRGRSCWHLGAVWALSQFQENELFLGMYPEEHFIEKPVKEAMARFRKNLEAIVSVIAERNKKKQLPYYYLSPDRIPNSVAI
protocol_notes: 5-LOX product formation in activated PMNL;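 further: freshly isolated human PMNL in PBS pH 7.4 plus glucose, preincubated 10 min at 37 °C with compound, 5-LOX products (all-trans LTB4 isomers, 5-HETE) quantified by RP-HPLC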
condition_info: PMNL, read-out: 5-LOX PMNL residual activity at 3 μM
Threshold check on remaining activity at 3 µM: strictly below 20% is Condition met; on or above 20% is Condition not met.

Input: For C/C(=C\CC[C@]1(C)CCc2c(C)c(O)cc(C)c2O1)CC/C=C(\C)CCCC(C)C(=O)O (stereo partly drawn) [Compound 19a] , is the recorded remaining activity at 3 µM below the cut-off of 20%?
Output: Condition met

Input: For C/C(=C\CC/C(C)=C/CC[C@]1(C)CCc2c(CN(C)C)c(O)c(CN(C)C)c(C)c2O1)CC/C=C(\C)C(=O)O , is the recorded remaining activity at 3 µM below the cut-off of 20%?
Output: Condition not met

Input: For C/C(=C\CC/C(C)=C/CC[C@]1(C)CCc2c(CO)c(O)cc(C)c2O1)CCC=C1COC(c2ccc([N+](=O)[O-])cc2)OC1 (stereo partly drawn) , is the recorded remaining activity at 3 µM below the cut-off of 20%?
Output: Condition met

Input: For C/C(=C\CC/C(C)=C/CC[C@]1(C)CCc2c(CN3CCCC3)c(O)cc(C)c2O1)CCC=C(CO)CO , is the recorded remaining activity at 3 µM below the cut-off of 20%?
Output: Condition met

Input: For C/C(=C\CC[C@]1(C)CCc2cc(O)cc(C)c2O1)CC/C=C(\C)CCCC(C)C(=O)O (stereo partly drawn) [Compound 19b] , is the recorded remaining activity at 3 µM below the cut-off of 20%?
Output: Condition met

Input: For C/C(=C\CC/C(C)=C/CC[C@]1(C)CCc2c(C)c(O)cc(C)c2O1)CCC=C(CO)CO [Compound 27b] , is the recorded remaining activity at 3 µM below the cut-off of 20%?
Output: Condition met

Input: For C/C(=C\CC/C(C)=C/CC[C@]1(C)CCc2c(CN3CCN(C)CC3)c(O)cc(C)c2O1)CCC=C(CO)CO , is the recorded remaining activity at 3 µM below the cut-off of 20%?
Output: Condition not met

Input: For COC(=O)/C(C)=C/CC/C(C)=C/CC/C(C)=C/CC[C@]1(C)CCc2c(c(C)cc(O)c2C(=O)OC)O1 , is the recorded remaining activity at 3 µM below the cut-off of 20%?
Output: Condition not met

Input: For C/C(=C\CC/C(C)=C/CC[C@]1(C)CCc2c(C)c(O)c(C)c(C)c2O1)CCC=C(CO)CO [Compound 27a, α-amplexichromanol] , is the recorded remaining activity at 3 µM below the cut-off of 20%?
Output: Condition met

Input: For C/C(=C\CC/C(C)=C/CC[C@]1(C)CCc2c(C)c(O)c(C=O)c(C)c2O1)CCC=C(CO)CO , is the recorded remaining activity at 3 µM below the cut-off of 20%?
Output: Condition met

Input: For Cc1cc(O)cc2c1O[C@](C)(CCCC(C)CCCC(C)CCCC(CO)CO)CC2 (stereo partly drawn) , is the recorded remaining activity at 3 µM below the cut-off of 20%?
Output: Condition not met

Input: For Cc1cc(O)cc2c1O[C@](C)(CCC=C(CO)CO)CC2 , is the recorded remaining activity at 3 µM below the cut-off of 20%?
Output: Condition not met

Input: For C/C(=C\CC/C(C)=C/CC[C@]1(C)CCc2c(CN(C)C)c(O)cc(C)c2O1)CC/C=C(\C)C(=O)O , is the recorded remaining activity at 3 µM below the cut-off of 20%?
Output: Condition not met

Input: For C/C(=C\CC/C(C)=C/CC[C@]1(C)CCc2c(CN3CCCCC3)c(O)cc(C)c2O1)CCC=C(CO)CO , is the recorded remaining activity at 3 µM below the cut-off of 20%?
Output: Condition met

Input: For C/C(=C\CC/C(C)=C/CC[C@]1(C)CCc2c(C=O)c(O)cc(C)c2O1)CCC=C(CO)CO , is the recorded remaining activity at 3 µM below the cut-off of 20%?
Output: Condition met
